Target: Folate Uptake Transporter (PCFT) in Caco2 cells (Homo sapiens)
Construct: These cells express high levels of the PCFT/SLC46A1 receptor; host or cells: Caco-2
Sequence (Q96NT5 whole entry): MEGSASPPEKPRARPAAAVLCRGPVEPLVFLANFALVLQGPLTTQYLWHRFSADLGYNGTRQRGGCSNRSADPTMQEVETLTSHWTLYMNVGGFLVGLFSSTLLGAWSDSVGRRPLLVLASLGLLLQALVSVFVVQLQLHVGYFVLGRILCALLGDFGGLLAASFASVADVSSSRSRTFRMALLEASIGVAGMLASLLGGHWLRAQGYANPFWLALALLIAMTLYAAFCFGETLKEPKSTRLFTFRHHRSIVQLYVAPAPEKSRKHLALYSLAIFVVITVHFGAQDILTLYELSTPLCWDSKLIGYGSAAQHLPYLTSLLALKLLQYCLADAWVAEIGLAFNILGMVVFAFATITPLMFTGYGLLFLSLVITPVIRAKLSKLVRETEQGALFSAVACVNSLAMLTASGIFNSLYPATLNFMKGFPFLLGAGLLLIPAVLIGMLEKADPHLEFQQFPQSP
Assay: Folate uptake transporter inhibition in Caco2 cell line ([3H]-folic acid uptake)
Format: cell-based
Conditions: Caco-2, pH 5.5, test conc. 50 μM, [3H]-folic acid 10 nM, 30 min pre-incubation, 6 min incubation, read-out: Percentage inhibition (%)
reported-endpoint: inhibition at 50 µM (%)
Give bare numbers, in %.

Give measured inhibition at 50 µM for every item shown.
1. CC(=O)N1CCC(C(=O)N2CCN3C(=O)c4cc(-c5ccccc5)ccc4NC(=O)C3C2)CC1 (stereo not shown) [MPOL_B_1]
2. Nc1nc2[nH]cc(CCc3ccc(C(=O)N[C@@H](CCC(=O)O)C(=O)O)cc3)c2c(=O)[nH]1 [Pemetrexed, reference compound]
3. Cc1ccc(NC(=O)N2Cc3[nH]cnc3CC2c2nc(-c3ccc4c(c3)OCO4)no2)cc1 (stereo not shown) [MPOL_D_1]

1. 42.3
2. 62.4
3. 25.5

Reported inhibition at 50 µM for Cc1cccc(-c2noc(C3Cc4nc[nH]c4CN3C(=O)Nc3cccc(F)c3)n2)c1 (stereo not shown) [MPOL_D_2] was -18.7
